TARGET_SYSTEM: human CRTH2 (Homo sapiens)
Sequence (Q9Y5Y4 1-395): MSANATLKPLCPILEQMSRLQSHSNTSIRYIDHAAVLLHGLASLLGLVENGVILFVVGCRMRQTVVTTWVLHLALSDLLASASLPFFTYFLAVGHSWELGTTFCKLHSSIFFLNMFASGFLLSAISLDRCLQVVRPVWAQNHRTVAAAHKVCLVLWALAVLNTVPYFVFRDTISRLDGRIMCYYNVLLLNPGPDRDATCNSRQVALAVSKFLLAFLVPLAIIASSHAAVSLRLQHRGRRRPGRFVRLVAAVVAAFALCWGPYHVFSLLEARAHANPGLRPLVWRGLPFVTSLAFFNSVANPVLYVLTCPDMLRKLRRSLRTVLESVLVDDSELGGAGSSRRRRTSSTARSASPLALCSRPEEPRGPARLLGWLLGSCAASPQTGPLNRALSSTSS
PROCEDURE_SUMMARY: Human CRTH2 Receptor Binding Assay (whole cell, [3H]ramatroban competition)
CONDITION_SUMMARY: CHO-K1 cells expressing human CRTH2 and G-alpha16; 20 nM [3H]ramatroban; 1 hour, room temperature
Could you please report measured IC50 for the items listed next?
The reply must contain the numeric value and, after it, the unit.

Study these solved cases before continuing.
COMPOUND	TARGET_SYSTEM	IC50
O=C(O)COc1c(F)c(F)cc2c1CCCC2NS(=O)(=O)c1cc(F)cc(C(F)(F)F)c1 (stereo not drawn)	human CRTH2 (Homo sapiens)	42.2 nM
O=C(O)COc1c(F)c(F)cc2c1CCCC2NS(=O)(=O)c1cc(Cl)ccc1Cl (stereo not drawn)	human CRTH2 (Homo sapiens)	269 nM
O=C(O)COc1cc(Cl)cc2c1CCCC2NS(=O)(=O)c1cc(F)cc(C(F)(F)F)c1 (stereo not drawn)	human CRTH2 (Homo sapiens)	3.8 nM
CN(C1CCCc2c1cc(F)c(F)c2OCC(=O)O)S(=O)(=O)c1cc(Br)cc(C(F)(F)F)c1 (stereo not drawn)	human CRTH2 (Homo sapiens)	288 nM
CN(C1CCCc2c1cc(F)c(F)c2OCC(=O)O)S(=O)(=O)c1cc(Cl)ccc1Cl (stereo not drawn)	human CRTH2 (Homo sapiens)	2100 nM

Required: IC50, one value per compound below.
1. O=C(O)COc1cc(-c2ccccc2)cc2c1CCCC2NS(=O)(=O)c1cc(C(F)(F)F)cc(C(F)(F)F)c1 (stereo not drawn)
2. CN(C1CCCc2c(OCC(=O)O)cc(F)cc21)S(=O)(=O)c1cc(Br)cc(C(F)(F)F)c1 (stereo not drawn)
3. O=C(O)COc1cc(Cl)cc2c1CCCC2NS(=O)(=O)c1cc(C(F)(F)F)cc(C(F)(F)F)c1 (stereo not drawn)
4. COc1cc(OCC(=O)O)c2c(c1)[C@H](NS(=O)(=O)c1cc(C(F)(F)F)cc(C(F)(F)F)c1)CCC2
5. O=C(O)COc1cc(Br)cc2c1CCCC2NS(=O)(=O)c1cc(C(F)(F)F)cc(C(F)(F)F)c1 (stereo not drawn)
6. O=C(O)COc1c(Cl)c(Cl)cc2c1CCCC2NS(=O)(=O)c1cc(C(F)(F)F)cc(C(F)(F)F)c1 (stereo not drawn)
7. O=C(O)COc1c(F)c(Cl)cc2c1CCCC2NS(=O)(=O)c1ccc(Cl)cc1Cl (stereo not drawn)

Reply |
["3.7 nM", "5.4 nM", "5.8 nM", "3.6 nM", "2.9 nM", "26.1 nM", "7.7 nM"]

Required: IC50, one value per compound below.
1. CN(C1CCCc2c(OCC(=O)O)cc(F)cc21)S(=O)(=O)c1ccc(Cl)cc1Cl (stereo not drawn)
2. CN(C1CCCc2c(OCC(=O)O)cc(Cl)cc21)S(=O)(=O)c1cc(Br)cc(C(F)(F)F)c1 (stereo not drawn)
3. CN(C1CCCc2c1cc(Cl)c(Cl)c2OCC(=O)O)S(=O)(=O)c1cc(C(F)(F)F)cc(C(F)(F)F)c1 (stereo not drawn)

Reply |
1. 981 nM
2. 6.2 nM
3. 333 nM

The measurements presented in this section are drawn from patent US8263656B2.
